Assay: Encapsulation efficiency, RiboGreen RNA quantitation assay (CA HA modFlu mRNA LNPs)
Type: physicochemical
Details: LNP with CA HA modFlu mRNA
Each entry below carries its recorded EE %.
Hi! Could you send only the number? It should be in %, unit omitted.

| COMPOUND | UNITS_TEXT | EE % |
| --- | --- | --- |
| CCCCCCCCC(CCCCCC)C(=O)OCCCC(COC(=O)C(CCCCCC)CCCCCCCC)N1CCC2(CCN(CCCCO)CC2)CC1 (centres unmarked) [Example 19] | % | 99 |
| CCCCCCCC(CCCCCCC)C(=O)OCC(COC(=O)C(CCCCCCC)CCCCCCC)N1CCC2(CCN(CCCO)CC2)CC1 [Example 10] | % | 99 |
| CCCCCCCC(CCCCCCC)C(=O)O[C@@H]1CC2(CCN(CCCCCO)CC2)C[C@H]1OC(=O)C(CCCCCCC)CCCCCCC (racemic) [Example 56] | % | 98 |

# query: EE % of entry CCCCCCCC(CCCCCCC)C(=O)O[C@@H]1CC2(CCN(CCCCO)CC2)C[C@H]1OC(=O)C(CCCCCCC)CCCCCCC (single isomer, unassigned) [Example 57]
99

Follow-up entry: CCCCCCCC(CCCCCCC)OC(=O)CCCCCC(=O)O[C@@H]1CC2(CCN(CCCCO)CC2)C[C@H]1OC(=O)CCCCCC(=O)OC(CCCCCCC)CCCCCCC (racemic) [Example 63]
99

Follow-up entry: CCCCCCCC(CCCCCCC)C(=O)OCC(COC(=O)C(CCCCCCC)CCCCCCC)N1CCC2(CCN(CCCCO)CC2)CC1 [Example 3]
100

Follow-up entry: CCCCCCCCC(CCCCCC)C(=O)OCC(COC(=O)C(CCCCCC)CCCCCCCC)N1CCC2(CCN(CCCNC(=O)C3(C)CC3)CC2)CC1 (centres unmarked) [Example 9]
99

Follow-up entry: CCCCCCCC(CCCCCCC)C(=O)OCC(COC(=O)C(CCCCCCC)CCCCCCC)N1CCC2(CCN(CCCCO)CC2)C1 [Example 14]
100

###

Test system: HEK293F cells
Assay: In vitro expression of novel ionizable lipid nanoparticles, high content imaging (CA HA modFlu mRNA)
Type: cell-based
Details: LNP with CA HA modFlu mRNA
Hi! Just check whether EC50 Hek293F (ng/well) is below 0.8 ng/well. Below gives t, equal or above gives f.

| COMPOUND | GROUP |
| --- | --- |
| CCCCCCCC(CCCCCCC)C(=O)O[C@@H]1CC2(CCN(CCO)CC2)C[C@H]1OC(=O)C(CCCCCCC)CCCCCCC (racemic) | f |

Input CCCCCCCCC(CCCCCC)C(=O)OCC(COC(=O)C(CCCCCC)CCCCCCCC)N1CC2(CCN(CCCCCO)CC2)C1 (stereo not shown) ; condition: EC50 Hek293F (ng/well) strictly below 0.8 ng/well. Does it hold?
t

Follow-up entry: CCCCCCCCC(CCCCCC)C(=O)OCC(COC(=O)C(CCCCCC)CCCCCCCC)N1CCC2(CCN(CCCCO)C2)CC1 (stereo not shown)
t

###

Assay: LNP size and polydispersity index by Malvern Zetasizer dynamic light scattering (CA HA modFlu mRNA LNPs)
Assay type: physicochemical
Settings: LNP with CA HA modFlu mRNA; DLS
ENDPOINT: PDI
Please reply with the number alone, leaving off any unit.

Worked set:
| COMPOUND | ENDPOINT | READOUT_VALUE |
| --- | --- | --- |
| CCCCCCCCCCCCCCCC(=O)OCC(COC(=O)C(CCCCCC)CCCCCCCC)N1CCC2(CCN(CCCCO)CC2)CC1 (stereo not shown) | PDI | 0.130 |
| CCCCCCCCC(CC1CCCCC1)C(=O)OCC(COC(=O)C(CCCCCCCC)CC1CCCCC1)N1CCC2(CCN(CCCCO)CC2)CC1 (stereo not shown) | PDI | 0.070 |
| CCCCCCCC(CCCCCCC)C(=O)OCC(COC(=O)C(CCCCCCC)CCCCCCC)N1CCC2(CCN(CCCCO)C2)CC1 | PDI | 0.065 |
| CCCCCCCCC(CCCCCCCC)C(=O)OCC(COC(=O)C(CCCCCCCC)CCCCCCCC)N1CCC2(CCN(CCCCO)CC2)CC1 | PDI | 0.072 |
| CCCCCCCCCCCCCCCC(=O)OCC(COC(=O)CCC(CCCC)C(CCCC)CCCC)N1CCC2(CCN(CCCCO)CC2)CC1 (stereo not shown) | PDI | 0.090 |
| CCCCCCCCC(CCCC)C(=O)OCC(COC(=O)C(CCCC)CCCCCCCC)N1CCC2(CCN(CCCCO)CC2)CC1 (stereo not shown) | PDI | 0.095 |

Proceed to the following item.
# query: PDI of entry CCCCCCCC(CCCCCCC)C(=O)O[C@H]1CC2(CCN(CCCCO)CC2)C[C@@H]1OC(=O)C(CCCCCCC)CCCCCCC (single isomer, unassigned)
0.125

The reported numbers originate from patent US20250367129A1.
